Reference source: PubChem BioAssay (NCI)

tested on: ACHN renal; assay: NCI-60 one-dose screen, 48 h (100 = growth as untreated, 0 = no growth, -100 = all killed); conditions: 10 µM unless noted
About 83,000 compounds went through this panel and 20% of them were active in at least one assay; those are over-represented in the sample as a whole.
Examples of compounds with documented growth follow.
Form entry: value (%) — number only.

// solved cases for growth follow
- Compound: "CC(C)(CNC1CCCCC1)OC(=O)c1ccccc1"
  growth [%]: 108
- Compound: "C/C(=C\\c1ccc2ccccc2c1)[N+](=O)[O-]"
  growth [%]: -74.1
- Compound: "CCc1c(C)c2ccc(OCC(=O)N=Nc3c(O)[nH]c4ccccc34)c(C)c2oc1=O"
  growth [%]: 82.2
- Compound: "Nc1nc2c(c3cnccc13)C(c1ccc(Cl)c(Cl)c1)Cc1cnccc1-2 (stereo not drawn)"
  growth [%]: -67.1

Recorded growth of O=C(CCl)c1ccc2c(c1)CCCC2 , please.
98.4

Consider the compound shown here: CCCCCCNc1nc(N2CCOCC2)c2[nH]c(NCCCCCC)nc2n1 What is its recorded growth?
-92.7

Would you kindly share the measured growth for CCCCCCCCCCCCCCCCCC(=O)Nc1ccc(O)cc1 ?
104

I'd like to know its growth. The compound in question is Cc1ccc(S(=O)(=O)Nc2cccc(Cn3c(=O)[nH]c4ccc(Oc5ncccn5)cc4c3=O)c2)cc1
87.7

====

tested on: SF-295 CNS; assay: NCI-60 one-dose screen, 48 h (100 = growth as untreated, 0 = no growth, -100 = all killed); conditions: 10 µM unless noted
The panel holds about 83,000 compounds, 20% with a hit somewhere; the sample as a whole holds those more often.
# note: boundary value 80% maps to rule not met; growth below it maps to rule met

- Compound: "Cc1ccc(C(=O)NN)cc1"
  Target of assay: "SF-295 CNS"
  Class: "rule not met"
- Compound: "CCCCCCCCc1ccc(CCC(N)(CO)CO)cc1"
  Target of assay: "SF-295 CNS"
  Class: "rule met"
- Compound: "CCOC(=O)/C(C#N)=C(/CC)OCC"
  Target of assay: "SF-295 CNS"
  Class: "rule not met"
- Compound: "COc1cc(OC)cc(-c2ccc(-c3ccc(C(=N)N)cc3)s2)c1"
  Target of assay: "SF-295 CNS"
  Class: "rule met"

I'd appreciate it if you could check whether CC1(c2ccc(Br)cc2)NC(=O)NC1=O (configuration not stated) has growth smaller than 80%.
rule not met

Is the reported growth for Cn1c2c(cc(S(=O)(=O)c3ccccc3)c1=O)CCc1c-2cnn1-c1ccc(Cl)cc1 strictly below 80%?
rule met

Does the reported growth of CN(CCC#N)c1ccc(/C=C(\C#N)c2cccc(C(F)(F)F)c2)cc1 stay below 80%?
rule not met

Consider the compound COC(=O)c1ccc2[nH]c(O)c(C(=Nc3ccc(N(C)C(=O)CN4CCN(C)CC4)cc3)c3ccc([N+](=O)[O-])cc3)c2c1 . Is its growth strictly less than 80%?
rule met

hey, is growth for Brc1c(-c2ccncc2)nc2n1CCS2 lower than 80% or not?
rule not met

# check: growth < 80% for COC(=O)c1ccc2[nH]c(O)c(C(=Nc3ccc(N(C)C(=O)CN4CCN(C)CC4)cc3)c3ccc(C)cc3)c2c1
rule met

Please check: growth for CCOC(=O)c1c(C)oc2ncnc(Nc3ccc(NC(=O)Nc4ccc(CC)cc4)cc3)c12 , strictly under 80% or not?
rule not met

State whether 80% exceeds growth recorded for O=C1C(Cl)=C(SC2=NCCN2)C(=O)c2ccccc21 .
rule not met

Hi there! Is growth for Oc1ccccc1\C=N/N=C/C=C/c1ccccc1 below 80%, do you know?
rule not met

====

Items are presented alongside their recorded growth.
system: SF-539 CNS; assay: NCI-60 one-dose screen, 48 h (100 = growth as untreated, 0 = no growth, -100 = all killed); conditions: 10 µM unless noted
The panel holds about 83,000 compounds, 20% with a hit somewhere; the sample as a whole holds those more often.
Please respond with the number in % and leave the unit unwritten.

The cases that follow already have their growth on record.
- Compound: "CCCCCCCCCCCCCCCCCC1=NCCN1CS(=O)(=O)O"
  growth (%): 61.2
- Compound: "CCCCCc1ccnc(CC(=O)c2ccc(OC)cc2)c1"
  growth (%): 97.2
- Compound: "O=C(Nc1cccc2[nH]c(C(F)(F)F)nc12)c1ccc(F)cc1"
  growth (%): 80

Requested read-out: growth. Entry: Cc1[nH]n(C(=S)Nc2nc3cc(Cl)c(F)cc3s2)c(=O)c1N=Nc1ccc(F)c(Cl)c1
108

# get_value(readout='growth', item= CCOC(=O)CCCCCCCCC(=O)OCC )
112

Report growth for N=C(N)c1ccc(-c2ccc(-c3ccc(Cl)cc3)s2)s1 please.
-86.7

I'd like to know its growth. The compound in question is O=C(CN1C(=O)NC(c2ccccc2)(c2ccccc2)C1=O)c1ccc(N2CCCC2)cc1
100

Which measured growth value corresponds to CC(=O)Nc1nc(C)c(C(=O)N/N=C/c2cccs2)s1 ?
99.3

Give its growth value. Item: O=C(/C(Br)=C/c1ccccc1)c1ccccc1
-41.7

// returns reported growth for input COC(=O)c1ccc2[nH]c(O)c(C(=Nc3ccc(N(C)C(=O)CN4CCN(C)CC4)cc3)c3cccc(OC)c3)c2c1
-11.2

Need growth, item C[C@@H](c1ccc2c(c1)[nH]c1ccc(Cl)cc12)c1nc2ccccc2[nH]1
98.7

====

test system: NCI-H226 lung; experiment: NCI-60 one-dose screen, 48 h; details: 10 µM unless noted
This is part of a sample that, as a whole, favours compounds with a hit. Of some 83,000 tested, about 20% had one in any assay. The source made the active and inactive calls. The calls were made as follows: active = growth percent below 10; inactive = the rest.
Give your call using only these classes: active, inactive

- Compound: "C/C=C(/C)C(=O)OC1C=C(CO)C(=O)C(OC(=O)C2(C)OC2C)C1C(C)C (stereo not given)"
  Class: "active"
- Compound: "COC(=O)c1ccc2[nH]c(O)c(C(=Nc3ccc(N(C)C(=O)CN4CCN(C)CC4)cc3)c3ccc(OC)cc3)c2c1"
  Class: "inactive"
- Compound: "CC1=NN(c2cccc(Cl)c2)C(=O)/C1=C\\c1cn(-c2nc(N3CCOCC3)nc(N3CCOCC3)n2)c2ccccc12"
  Class: "inactive"
- Compound: "CN(C)CCOC(=O)C(C)(C)C"
  Class: "inactive"

Then there is this compound:
Recorded test outcome, item COc1ccc2cn3c4ccc(O)cc4[nH]c(=O)c3c2c1
inactive

====

system: K-562 leukemia; test: NCI-60 one-dose screen, 48 h (100 = growth as untreated, 0 = no growth, -100 = all killed); conditions: 10 µM unless noted
The panel holds about 83,000 compounds, 20% with a hit somewhere; the sample as a whole holds those more often. Active and inactive are the calls of the source. How the source made its calls: active means growth percent below 10; inactive means the rest.
Assay readout: growth

// below: answered molecules
- Molecule: "CC(=O)Nc1ccc(C(=O)/C=C/c2ccc(N(C)C)cc2)cc1"
  growth: "98.2% (inactive)"
- Molecule: "NNC(=S)N1N=C(c2cc3ccccc3o2)CC1c1c[nH]c2ccccc12 (stereo unspecified)"
  growth: "9.64% (active)"
- Molecule: "O=Nc1c(-c2c(O)[nH]c3cc(Br)ccc23)[nH]c2ccccc12"
  growth: "-64.1% (active)"
- Molecule: "NC(N)=Nc1ccc(/C=C2\\C=Cc3ccccc32)cc1"
  growth: "13.6% (inactive)"
- Molecule: "Nc1nc2c(c3cnccc13)C(c1cccc(Br)c1)Cc1cnccc1-2 (stereo unspecified)"
  growth: "9.88% (active)"
- Molecule: "CCC(C)[C@H](NC(=O)Nc1cc(C(F)(F)F)cc(C(F)(F)F)c1)C(=O)N[C@@H](Cc1cn(C)cn1)C(=O)OC (stereo partly specified)"
  growth: "-68.3% [100 µM] (active)"
- Molecule: "c1ccc(Nc2ccccn2)cc1"
  growth: "89.5% (inactive)"
- Molecule: "O=C(N/N=C\\c1ccc(-c2ccc(Br)cc2)o1)c1cc2oc(-c3cccc(C(F)(F)F)c3)cc2[nH]1"
  growth: "90.2% (inactive)"

Quick one: growth for COc1cccc(NC(=O)NCCNc2nccc(-c3c(-c4ccc(F)cc4)nc4sccn34)n2)c1 ?
71.4% (inactive)

Report growth for O=C1Nc2c(c(=O)n(-c3ccccc3)c3ccccc23)C(c2ccc(Cl)cc2)N1 (stereo unspecified) please.
93.7% (inactive)

I am curious: what growth value has been reported for COc1ccc(-c2nc(Nc3nc4ccccc4[nH]3)nc(N)c2C#N)cc1 ?
97.2% (inactive)

====

# growth listing for each entry below
test system: COLO 205 colon; assay: NCI-60 one-dose screen, 48 h (100 = growth as untreated, 0 = no growth, -100 = all killed); conditions: 10 µM unless noted
The panel holds about 83,000 compounds, 20% with a hit somewhere; the sample as a whole holds those more often.
# number only, unit % dropped from output

Answered cases to consult:
- Molecule: "COC1(OC)N=C(N)C2(C#N)C3(C(=O)Nc4ccccc43)C12C#N (stereo not given)"
  growth, %: 116
- Molecule: "CCC(C)(C)c1ccc(OCCCCCCN2CCN(c3ccc(C)c(Cl)c3)CC2)cc1"
  growth, %: 91.4

Looking for the measured growth of COc1ccccc1Cn1cc2c(c1)-c1oncc1CC2 , can you help?
-28.2

Query (molecule): CCCCCCCCCC[N+](C)(C)C ; field requested: growth
-49.9

Give the measured growth of COc1cc(/C=C/C(=O)c2ccc(F)cc2)ccc1OCCCCOc1cc2c(cc1OC)C(=O)N1CCCC1C=N2 (stereo not given) .
-45.2
